# Experimental System: BCL-XLΔC (Homo sapiens)
# Sequence (Q07817 1-212 limits assumed, stated change not applied): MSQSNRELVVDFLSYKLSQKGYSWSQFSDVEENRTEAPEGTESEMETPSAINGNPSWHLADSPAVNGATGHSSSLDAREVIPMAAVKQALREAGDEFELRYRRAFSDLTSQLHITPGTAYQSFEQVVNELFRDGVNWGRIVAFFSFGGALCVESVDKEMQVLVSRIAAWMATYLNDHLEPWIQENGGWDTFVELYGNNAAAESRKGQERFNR
# Assay Procedure: High-throughput competitive FP binding screen, FITC-BAD BH3/BCL-XLΔC interaction
# Setup Conditions: FITC-BAD BH3/BCL-XLΔC interaction pair, competitive FP screen
Give measured BCL-XL % Bound for each item. Keep answers brief.
One number for each entry, in %.

What does the record list as BCL-XL % Bound for CC(C)(C)c1cc(O)c2oc(=O)c(-c3nc(-c4ccccc4F)no3)cc2c1 ?
71.1

Provide each entry's BCL-XL % Bound from the list below.
1. O=C1NC(=S)S/C1=C\c1ccc(-c2ccc(S(=O)(=O)N3CCOCC3)cc2)o1
2. Cc1cc2nc(N3CCC(C)CC3)c3ccccc3n2n1
3. CCCOC(=O)c1cc(-c2ccc(/C=C3\C(=O)NC(=O)C(C#N)=C3C)o2)ccc1Cl
4. C/C(=N\OCc1ccc(C(=O)N2CCCCC2)o1)c1cccc(C(F)(F)F)c1
5. CC1=CC(=O)C(CCCC2=CC(=O)C=CC2=O)=CC1=O

[107.9, 106.7, 87.16, 110.8, 92.47]

Respectfully, I request BCL-XL % Bound for each entry included below.
1. CN(C)/C=C1\SC(=S)N(c2ccc(Br)cc2)C1=O
2. O=C1C(Sc2nc[nH]n2)=CC(NS(=O)(=O)c2ccc(F)cc2)c2ccccc21 (centres unmarked)

1: 112.3; 2: 96.12

* * *

# Experimental System: MCL-1ΔNΔC (Homo sapiens, UniProt Q07820)
# Sequence (Q07820 172-320 limits assumed, stated change not applied): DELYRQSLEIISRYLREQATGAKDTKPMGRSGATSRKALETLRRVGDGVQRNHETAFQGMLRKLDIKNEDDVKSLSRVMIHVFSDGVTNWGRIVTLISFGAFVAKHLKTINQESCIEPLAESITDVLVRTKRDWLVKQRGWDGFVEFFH
# Assay Procedure: High-throughput competitive FP binding screen, FITC-MCL-1 SAHB/MCL-1ΔNΔC interaction
# Set-up: the C-terminal alpha-helix was deleted from each of these constructs; GST (N, cleaved yes); made in house
# Setup Conditions: FITC-MCL-1 SAHB/MCL-1ΔNΔC interaction pair, competitive FP screen
Property Name: MCL-1% Bound (%)
Give bare numbers, in %.

Observe how each entry below is paired with its result.
Could you share which MCL-1% Bound value was measured for O=C1N/C(=N\c2ccc(F)cc2)S/C1=C/c1ccc(N2CCCCCC2)o1 ?
40.42

Need MCL-1% Bound of c1cc2nsnc2c2c1Nc1nc3nonc3nc1N2 , thanks.
−8.097

Consider the compound CCOC(=O)C1=C(NC(=O)c2ccccc2)S/C(=C\c2ccc(C)o2)C1=O and give its measured MCL-1% Bound.
43.16

So what's the measured MCL-1% Bound for this one? Cc1ccc2n1CCn1cc(-c3ccc(Br)cc3)cc1-2
43.77

Param item = Cc1ccc(C2=NC(=O)/C(=C/c3cc(O)c(O)c(Br)c3)S2)cc1 ; retrieve measured MCL-1% Bound.
2.607

Read the next record carefully.
Recorded MCL-1% Bound of O=C(ON1C(=O)CCC1=O)c1ccc(Cl)cc1Cl , please.
30.48

* * *

# Experimental System: MCL-1ΔNΔC (Homo sapiens, UniProt Q07820)
# Assay Procedure: High-throughput competitive FP binding screen, FITC-MCL-1 SAHB/MCL-1ΔNΔC interaction
# Set-up: the C-terminal alpha-helix was deleted from each of these constructs; GST (N, cleaved yes); made in house
# Setup Conditions: FITC-MCL-1 SAHB/MCL-1ΔNΔC interaction pair, competitive FP screen
Would you kindly list MCL-1% Bound for each of these compounds?
Hey, just the number and the unit after it is fine.

Quick one: give me MCL-1% Bound for each item below, same order please.
1. CS/C(=N\S(=O)(=O)c1ccccc1)NNc1ccccc1
2. O=C(O)C1CCCN(c2nn3cc(-c4ccc(F)cc4)nc3s2)C1 (centres unmarked)
3. CC1=C(C#N)C(=O)N=C(O)/C1=C\c1ccc(-c2ccc(S(N)(=O)=O)cc2)o1 [drawing 191]
4. COC(=O)c1c(NC(=S)Nn2cnnc2)sc2c1CCC(C)C2 (centres unmarked)
5. O=S(=O)(NNc1cnc2ccccc2n1)c1ccccc1C(F)(F)F
6. O=C(/C=C/c1ccco1)Nc1ccc2ccccc2c1
7. Cc1nn(-c2ccccc2)c2nc3ccccc3c(N3CCOCC3)c12

["39.93%", "28.04%", "21.8%", "25.26%", "65.42%", "64.64%", "47.31%"]

Would you be so kind as to report MCL-1% Bound for each listed record?
1. O=c1oc2c(-c3cccc(Cl)c3)cc(O)cc2s1
2. COC(=O)c1ccc(-c2ccc(/C=C3/C(=O)N(C)C(=O)C(C#N)=C3C)o2)cc1

["11.2%", "38.82%"]

Hello, I would appreciate it if you could give MCL-1% Bound for each entry below.
1. Cc1cc2c(n1-c1ccc(C(=O)O)cc1)CCCC2
2. N#CC1=C(c2ccc(Cl)cc2)C2CSc3ccccc3C2NC1=O (centres unmarked)

−5.85%
19.37%
